Values compiled from BigSolDB 2.1.

conditions: in methyl acetate, 317.05 K
measuredQuantity: solubility (mole fraction)
Response field accepts a number only; no unit should be typed.

[ask] Quick check: solubility (mole fraction) of O=C(O)/C=C/c1ccccc1Cl ?
[reply] 0.00956

---

conditions: in methanol, 302.95 K
measuredQuantity: solubility (mole fraction)
Reply with just the number.

[ask] Which measured solubility (mole fraction) value corresponds to O=C(O)/C=C/c1ccccc1Cl ?
[reply] 0.00549

---

conditions: in acetone, 317.05 K
measuredQuantity: solubility (mole fraction)
Would you mind answering with just the numeric figure?

[ask] What value of solubility (mole fraction) has been reported for the following compound? O=C(O)/C=C/c1ccccc1Cl
[reply] 0.016

---

conditions: in n-propanol, 298.15 K
measuredQuantity: solubility (mole fraction)
Give a plain numeric answer without units written out.

[ask] Query (compound): O=C(O)/C=C/c1ccccc1Cl ; field requested: solubility (mole fraction)
[reply] 0.00602

---

conditions: in isopropanol, 278.45 K
measuredQuantity: solubility (mole fraction)
Please give only the number in your answer, with no unit.

[ask] Need solubility (mole fraction) of O=C(O)/C=C/c1ccccc1Cl , thanks.
[reply] 0.00245

---

conditions: in n-butanol, 302.95 K
measuredQuantity: solubility (mole fraction)

[ask] Item under review: O=C(O)/C=C/c1ccccc1Cl . Reported solubility (mole fraction)?
[reply] 0.00757

---

conditions: in isobutanol, 316.55 K
measuredQuantity: solubility (mole fraction)

[ask] solubility (mole fraction) lookup needed for O=C(O)/C=C/c1ccccc1Cl , thanks.
[reply] 0.00855

---

conditions: in ethyl formate, 278.45 K
measuredQuantity: solubility (mole fraction)
API doc: respond with a numeric literal and nothing else, no unit.

[ask] Reported solubility (mole fraction), compound O=C(O)/C=C/c1ccccc1Cl : ____
[reply] 0.00124

---

conditions: in isobutanol, 321.55 K
measuredQuantity: solubility (mole fraction)
Answer as a number with no unit attached.

[ask] Could you tell me which solubility (mole fraction) is on file for O=C(O)/C=C/c1ccccc1Cl ?
[reply] 0.0106

---

conditions: in isopropanol, 307.35 K
measuredQuantity: solubility (mole fraction)
The answer should be a number; do not append a unit.

[ask] Name the reported solubility (mole fraction) value associated with the compound O=C(O)/C=C/c1ccccc1Cl
[reply] 0.00848

---

conditions: in n-pentanol, 298.15 K
measuredQuantity: solubility (mole fraction)

[ask] Suppose we examine the compound O=C(O)/C=C/c1ccccc1Cl ; what solubility (mole fraction) value has been reported?
[reply] 0.00704

---

settings: in isopentanol, 288.35 K
measuredQuantity: solubility (mole fraction)
I'd appreciate a reply containing only the number, no unit.

[ask] Which solubility (mole fraction) is listed for O=C(O)/C=C/c1ccccc1Cl ?
[reply] 0.00396

---

settings: in acetonitrile, 288.35 K
measuredQuantity: solubility (mole fraction)
When you answer, write just the number.

[ask] Form field: reported solubility (mole fraction) of O=C(O)/C=C/c1ccccc1Cl
[reply] 0.000617

---

conditions: in n-butanol, 312.05 K
measuredQuantity: solubility (mole fraction)
Give a plain numeric answer without units written out.

[ask] Returns the measured solubility (mole fraction) for the input compound. Input: O=C(O)/C=C/c1ccccc1Cl
[reply] 0.0107

---

details: in n-propanol, 288.35 K
measuredQuantity: solubility (mole fraction)
Give the figure by itself; no unit, no explanation.

[ask] Fill in the blank: the reported solubility (mole fraction) of O=C(O)/C=C/c1ccccc1Cl is ____.
[reply] 0.00408

---

conditions: in ethanol, 288.35 K
measuredQuantity: solubility (mole fraction)
// no unit string in output, number only

[ask] Given the compound O=C(O)/C=C/c1ccccc1Cl , what is its reported solubility (mole fraction)?
[reply] 0.00431

---

details: in toluene, 302.55 K
measuredQuantity: solubility (mole fraction)
Lab note: jot the number down without any unit.

[ask] Name the recorded solubility (mole fraction) for O=C(O)/C=C/c1ccccc1Cl .
[reply] 0.000932

---

details: in isopentanol, 292.85 K
measuredQuantity: solubility (mole fraction)
Reply with just the number.

[ask] State the recorded solubility (mole fraction) for this entry: O=C(O)/C=C/c1ccccc1Cl
[reply] 0.00475

---

settings: in n-propanol, 283.45 K
measuredQuantity: solubility (mole fraction)
Reply briefly: the number, and no unit.

[ask] Fill in the blank: the reported solubility (mole fraction) of O=C(O)/C=C/c1ccccc1Cl is ____.
[reply] 0.00332

---

details: in isopropanol, 272.15 K
measuredQuantity: solubility (mole fraction)
// keep it numeric: no unit symbol after the value

[ask] Returns the measured solubility (mole fraction) for the input compound. Input: O=C(O)/C=C/c1ccccc1Cl
[reply] 0.00181

---

conditions: in isopentanol, 298.15 K
measuredQuantity: solubility (mole fraction)

[ask] Need solubility (mole fraction) of O=C(O)/C=C/c1ccccc1Cl , thanks.
[reply] 0.0058

---

conditions: in ethyl formate, 317.05 K
measuredQuantity: solubility (mole fraction)
Quick one: just the number, no unit, thanks!

[ask] Any idea what solubility (mole fraction) was measured for O=C(O)/C=C/c1ccccc1Cl ?
[reply] 0.0059

---

conditions: in isobutanol, 278.45 K
measuredQuantity: solubility (mole fraction)
Could you keep your reply to the number by itself?

[ask] Reported solubility (mole fraction), compound O=C(O)/C=C/c1ccccc1Cl : ____
[reply] 0.00167

---

conditions: in 2-pentanone, 302.55 K
measuredQuantity: solubility (mole fraction)
Please state the value as a number alone, without comment.

[ask] Which solubility (mole fraction) is listed for O=C(O)/C=C/c1ccccc1Cl ?
[reply] 0.011

---

settings: in toluene, 297.75 K
measuredQuantity: solubility (mole fraction)
When you answer, write just the number.

[ask] Look up solubility (mole fraction) for this molecule: O=C(O)/C=C/c1ccccc1Cl
[reply] 0.000716

---

conditions: in isopropanol, 292.85 K
measuredQuantity: solubility (mole fraction)
// response body must contain only the number

[ask] Fill blank: measured solubility (mole fraction) of the compound O=C(O)/C=C/c1ccccc1Cl is ____.
[reply] 0.00468

---

details: in isopropanol, 288.35 K
measuredQuantity: solubility (mole fraction)
Could you respond with only the numeric value?

[ask] Request the reported solubility (mole fraction) associated with O=C(O)/C=C/c1ccccc1Cl
[reply] 0.00385

---

details: in n-propanol, 321.55 K
measuredQuantity: solubility (mole fraction)

[ask] Could you tell me which solubility (mole fraction) is on file for O=C(O)/C=C/c1ccccc1Cl ?
[reply] 0.0139

---

conditions: in ethyl acetate, 272.15 K
measuredQuantity: solubility (mole fraction)

[ask] Would you kindly share the measured solubility (mole fraction) for O=C(O)/C=C/c1ccccc1Cl ?
[reply] 0.00231
